Molecular target: T1, EsCas13d, nuclease-dead (Eubacterium siraeum, UniProt B0MS50, R295A;H300A;R849A;H854A)
T1 sequence: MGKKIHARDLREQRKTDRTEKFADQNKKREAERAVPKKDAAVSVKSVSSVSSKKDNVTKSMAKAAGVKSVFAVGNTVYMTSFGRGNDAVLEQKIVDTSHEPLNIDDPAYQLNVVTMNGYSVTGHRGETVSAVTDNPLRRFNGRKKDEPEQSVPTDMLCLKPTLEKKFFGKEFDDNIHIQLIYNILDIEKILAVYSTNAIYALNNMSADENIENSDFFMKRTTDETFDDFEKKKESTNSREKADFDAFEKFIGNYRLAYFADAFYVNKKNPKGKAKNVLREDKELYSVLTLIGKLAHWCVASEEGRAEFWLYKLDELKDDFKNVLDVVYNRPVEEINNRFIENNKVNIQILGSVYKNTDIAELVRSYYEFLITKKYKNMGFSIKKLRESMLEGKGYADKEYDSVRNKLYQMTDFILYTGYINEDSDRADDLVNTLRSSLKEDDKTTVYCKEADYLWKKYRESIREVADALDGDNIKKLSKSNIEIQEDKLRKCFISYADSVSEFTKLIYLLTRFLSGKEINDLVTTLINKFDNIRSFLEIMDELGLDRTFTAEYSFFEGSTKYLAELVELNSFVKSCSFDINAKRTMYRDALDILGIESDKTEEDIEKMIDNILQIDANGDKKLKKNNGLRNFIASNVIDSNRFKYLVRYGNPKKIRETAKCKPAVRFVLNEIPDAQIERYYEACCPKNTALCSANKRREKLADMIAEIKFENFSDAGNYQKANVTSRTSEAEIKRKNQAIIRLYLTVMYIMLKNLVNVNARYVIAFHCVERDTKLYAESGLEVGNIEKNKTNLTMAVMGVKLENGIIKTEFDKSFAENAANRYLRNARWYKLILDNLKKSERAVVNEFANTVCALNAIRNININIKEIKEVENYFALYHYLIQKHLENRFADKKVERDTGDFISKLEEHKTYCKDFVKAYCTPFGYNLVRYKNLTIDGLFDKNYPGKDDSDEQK
Experiment: crRNA (strand 1, pre-loaded); Mg2+; 40 mM Tris-HCl pH 7.5, 150 mM NaCl, 6 mM MgCl2, 1 mM DTT, 0.1% Tween-20, 0.2 mg/ml BSA; 25 C; 10 min per concentration, then washed
Details: tags: His6-TwinStrep-SUMO cleaved; N-terminal SNAP kept (SNAP-Surface 488); label: 3' end held by stalled T7 RNA polymerase
measurementLabel: Kd (nM)
Express it in nM; write the number only.

Give a short answer stating reported Kd for target 2 MT 5'PFS UGU 3'PFS ACG (mixed) RNA 1: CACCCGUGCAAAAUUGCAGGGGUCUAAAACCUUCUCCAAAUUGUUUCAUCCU RNA 2: GGGAAUGGAUCCACAUCUACGAAUUCUGUAGGAUGAAACAAUUUGGAGAAGACGAGAUCGGAAGAGCACACGU .
15

Output measured Kd for this item: target 2 MT 5'PFS GCC 3'PFS UUU (mixed) RNA 1: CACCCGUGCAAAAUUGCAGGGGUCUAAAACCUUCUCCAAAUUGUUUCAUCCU RNA 2: GGGAAUGGAUCCACAUCUACGAAUUCGCCAGGAUGAAACAAUUUGGAGAAGUUUAGAUCGGAAGAGCACACGU
41

Tell us which Kd value is on record for target 1 MT 5'PFS ACU 3'PFS CUU (mixed) RNA 1: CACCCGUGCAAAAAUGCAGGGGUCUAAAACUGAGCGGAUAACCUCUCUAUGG RNA 2: GGGAAUGGAUCCACAUCUACGAAUUCACUCCAUAGAGAGGUUAUCCGCUCACUUAGAUCGGAAGAGCACACGU
38

Tell me measured Kd for target 2 MT 5'PFS GUA 3'PFS CGC (mixed) RNA 1: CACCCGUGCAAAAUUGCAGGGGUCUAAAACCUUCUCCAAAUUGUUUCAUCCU RNA 2: GGGAAUGGAUCCACAUCUACGAAUUCGUAAGGAUGAAACAAUUUGGAGAAGCGCAGAUCGGAAGAGCACACGU please.
7.4

In one line, give reported Kd of the entry target 2 MT 5'PFS UGA 3'PFS AUC (mixed) RNA 1: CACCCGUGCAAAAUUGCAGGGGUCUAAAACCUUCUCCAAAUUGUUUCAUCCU RNA 2: GGGAAUGGAUCCACAUCUACGAAUUCUGAAGGAUGAAACAAUUUGGAGAAGAUCAGAUCGGAAGAGCACACGU .
8.7

Find the measured Kd of target 1 MT 5'PFS CAG 3'PFS AGC (mixed) RNA 1: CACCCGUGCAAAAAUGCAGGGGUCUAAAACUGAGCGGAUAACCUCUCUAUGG RNA 2: GGGAAUGGAUCCACAUCUACGAAUUCCAGCCAUAGAGAGGUUAUCCGCUCAAGCAGAUCGGAAGAGCACACGU and report it.
20.5

Consider the binder target 2 MT 5'PFS CUG 3'PFS CAU (mixed) RNA 1: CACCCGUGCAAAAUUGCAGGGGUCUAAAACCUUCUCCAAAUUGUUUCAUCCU RNA 2: GGGAAUGGAUCCACAUCUACGAAUUCCUGAGGAUGAAACAAUUUGGAGAAGCAUAGAUCGGAAGAGCACACGU . State its measured Kd.
2.29

Data provenance is paper PMC10786891.
